Where these numbers come from: PubChem BioAssay (NCI)

Tested on: ACHN renal
Assay: NCI-60 one-dose screen, 48 h (100 = growth as untreated, 0 = no growth, -100 = all killed)
Conditions: 10 µM unless noted
This is part of a sample that, as a whole, favours compounds with a hit. Of some 83,000 tested, about 20% had one in any assay.
Please assign F whenever growth is at or above 70%, and T whenever it is below.

Recorded results for 5 compounds are shown here.
{"compound": "CN(C)CCCC1(c2ccc(F)cc2)OCc2cc(-c3cccc4[nH]ccc34)ccc21 (stereo not given)", "assignedClass": "T"}
{"compound": "CCc1ccc(Oc2cn[nH]c2-c2ccc(OCCc3ccc(F)cc3)cc2O)cc1", "assignedClass": "F"}
{"compound": "CN(Cc1ccc(C(F)(F)F)cc1)CC(O)C(=O)Nc1ccc(Cl)cc1 (stereo not given)", "assignedClass": "T"}
{"compound": "N=C(N)c1ccc(-c2ccc(-c3ccc(Cl)cc3)s2)nc1", "assignedClass": "T"}
{"compound": "OCCOCCN(Cc1ccccn1)Cc1cc(I)cc(I)c1O", "assignedClass": "T"}

Please find the next compound below.
I wonder whether CCCCNC(=O)Oc1ccc(/C(=C(/CC)Cc2ccccc2)c2ccc(OCCN3CCCCCC3)cc2)cc1 has growth below 70%. Can you tell?
T
